Target: BCL2 D111A (Homo sapiens, UniProt P10415, D111A)
Test: TR-FRET competitive binding assay, BCL2 D111A
Details: Ki determined from IC50, read-out: TR_FRET EKI_Bcl2 D111A
Description: The relative binding potency of each compound was determined in a competitive binding assay using time resolved-fluorescence resonance energy transfer (TR-FRET). […] The degree of binding or corresponding compound inhibition can be quantified by the TR-FRET signal between the terbium donor and fluorescein acceptor. […] TR-FRET measurements were performed on a Biotek Synergy Neo plate reader. […] The TR-FRET signal was calculated as the emission-ratio at 520 nm over 495 nm. […]
MEASURED_ATTRIBUTE: Ki (nM)
Give the value, in units of nM, as a plain number.

// assay BCL2 D111A (Homo sapiens, UniProt P10415, D111A), entry Cc1c(N(C(=O)c2cc(-c3cc4c(cc3C(=O)N3Cc5ccccc5C[C@H]3C)CN(C(=O)Cc3ccc(OCCN(C)C5CC5)cc3)CC4)n3c2CCCC3)c2ccc(O)cc2)cc(C#N)n1C [Example 35] , Ki value = 0.27

Observed Ki on BCL2 D111A (Homo sapiens, UniProt P10415, D111A), entry COc1ccc(CC(=O)N2CCc3cc(-c4cc(C(=O)N(c5ccc(O)cc5)c5cc(C#N)n(C)c5C)c(C)n4C)c(C(=O)N4Cc5ccccc5C[C@H]4CN4CCCCC4)cc3C2)c(F)c1 [Example 33] , equals 0.1

Measured Ki for this entry Cc1c(N(C(=O)c2cc(-c3cc4c(cc3C(=O)N3Cc5ccccc5C[C@H]3C)CN(C(=O)Cc3ccc(N5CCN6CCOC[C@@H]6C5)cc3F)CC4)n(C)c2C)c2ccc(O)cc2)cc(C#N)n1C [Example 45] on BCL2 D111A (Homo sapiens, UniProt P10415, D111A): 0.19

The measured Ki that Cc1c(N(C(=O)c2cc(-c3cc4c(cc3C(=O)N3Cc5ccccc5C[C@H]3CN3CCCCC3)CN(C(=O)Cc3ccc(OCCC5CCOCC5)cc3)CC4)n(C)c2C)c2ccc(O)cc2)cc(C#N)n1C [Example 66] showed for BCL2 D111A (Homo sapiens, UniProt P10415, D111A) is 0.23

Entry Cc1c(N(C(=O)c2cc(-c3cc4c(cc3C(=O)N3Cc5ccccc5C[C@H]3C)CN(C(=O)Cc3ccc(OCCN5CCC(F)CC5)cc3)CC4)n(C)c2C)c2ccc(O)cc2)cc(C#N)n1C [Example 53] : Ki on BCL2 D111A (Homo sapiens, UniProt P10415, D111A) = 0.18

The measured Ki that Cc1c(N(C(=O)c2cc(-c3cc4c(cc3C(=O)N3Cc5ccccc5C[C@H]3CN3CCCCC3)CN(C(=O)Cc3ccc(OCCC5CCOCC5)cc3F)CC4)n(C)c2C)c2ccc(O)cc2)cc(C#N)n1C [Example 34] showed for BCL2 D111A (Homo sapiens, UniProt P10415, D111A) is 0.2

Given the compound Cc1c(N(C(=O)c2cc(-c3cc4c(cc3C(=O)N3Cc5ccccc5C[C@H]3C)CN(C(=O)Cc3ccc(N5CCC(N6CCOCC6)C5)cc3)CC4)n(C)c2C)c2ccc(O)cc2)cc(C#N)n1C (single isomer, unassigned) [Example 63] and test system BCL2 D111A (Homo sapiens, UniProt P10415, D111A), the measured Ki is 0.42

So the reported Ki for Cc1c(N(C(=O)c2cc(-c3cc4c(cc3C(=O)N3Cc5ccccc5C[C@H]3C)CN(C(=O)Cc3ccc(CCN5CCC(F)(F)CC5)cc3)CC4)n(C)c2C)c2ccc(O)cc2)cc(C#N)n1C [Example 51] , on BCL2 D111A (Homo sapiens, UniProt P10415, D111A), turned out to be 0.89

Tested on BCL2 D111A (Homo sapiens, UniProt P10415, D111A), the item Cc1c(N(C(=O)c2cc(-c3cc4c(cc3C(=O)N3Cc5ccccc5C[C@H]3CN3CCCCC3)CN(C(=O)Cc3ccc(OCCN5CCOCC5)cc3F)CC4)n(C)c2C)c2ccc(O)cc2)cc(C#N)n1C [Example 43] showed Ki equal to 0.1

GET /values?item= Cc1c(N(C(=O)c2cc(-c3cc4c(cc3C(=O)N3Cc5ccccc5C[C@H]3C)CN(C(=O)c3cnc(-c5ccccc5)s3)CC4)n(C)c2C)c2ccc(O)cc2)cc(C#N)n1C [Example 17] &system= BCL2 D111A (Homo sapiens, UniProt P10415, D111A) returns Ki: 3.34

###

Target: BCL2 WT (Homo sapiens (Human), UniProt P10415)
Sequence (P10415 other isoform, or with tags, fused parts or gaps): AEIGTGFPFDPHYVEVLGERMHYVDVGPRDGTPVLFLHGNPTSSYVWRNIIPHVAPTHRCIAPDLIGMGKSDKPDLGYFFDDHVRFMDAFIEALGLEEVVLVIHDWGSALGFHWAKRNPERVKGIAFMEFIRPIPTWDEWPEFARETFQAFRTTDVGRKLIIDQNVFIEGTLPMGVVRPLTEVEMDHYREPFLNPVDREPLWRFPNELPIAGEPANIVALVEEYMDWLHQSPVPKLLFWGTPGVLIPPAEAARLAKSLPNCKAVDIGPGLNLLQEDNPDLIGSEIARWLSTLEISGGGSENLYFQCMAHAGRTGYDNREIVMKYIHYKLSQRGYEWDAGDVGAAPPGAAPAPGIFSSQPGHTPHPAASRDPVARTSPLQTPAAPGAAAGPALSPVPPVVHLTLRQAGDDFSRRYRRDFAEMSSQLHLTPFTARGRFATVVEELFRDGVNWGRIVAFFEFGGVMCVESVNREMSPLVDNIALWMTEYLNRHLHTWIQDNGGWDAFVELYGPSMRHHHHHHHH
Assay: TR-FRET competitive binding assay, BCL2 WT
Settings: Ki determined from IC50, read-out: TR_FRET EKI_Bcl2 WT
Give measured pKi for each item. Keep answers brief.
// field semantics: pKi = negative decimal log of concentration (mol/L)

The molecule identified as Cc1c(N(C(=O)c2cc(-c3cc4c(cc3C(=O)N3Cc5ccccc5C[C@H]3CN3CCCCC3)CN(C(=O)Cc3ccc(OCCN(C)CC5COC5)cc3)CC4)n(C)c2C)c2ccc(O)cc2)cc(C#N)n1C registered its pKi at 10.15

The molecule Cc1c(N(C(=O)c2cc(-c3cc4c(cc3C(=O)N3Cc5ccccc5C[C@H]3CN3CC[C@@H](F)C3)CN(C(=O)Cc3ccc(OCCN5CCOCC5)cc3F)CC4)n(C)c2C)c2ccc(O)cc2)cc(C#N)n1C showed pKi equal to 10.22

Form: molecule = Cc1c(N(C(=O)c2cc(-c3cc4c(cc3C(=O)N3Cc5ccccc5C[C@H]3CN3CCCCC3)CN(C(=O)Cc3ccc(OCCN5CCC(F)(F)C5)cc3)CC4)n(C)c2C)c2ccc(O)cc2)cc(C#N)n1C ; pKi = 9.72

The measured pKi associated with COc1ccc(CC(=O)N2CCc3cc(-c4cc(C(=O)N(c5ccc(O)cc5)c5cc(C#N)n(C)c5C)c(C)n4C)c(C(=O)N4Cc5ccccc5C[C@H]4CN4CCCCC4)cc3C2)c(F)c1 reads 9.82

Recorded pKi (molecule Cc1c(N(C(=O)c2cc(-c3cc4c(cc3C(=O)N3Cc5ccccc5C[C@H]3C)CN(C(=O)Cc3ccccc3C#N)CC4)n(C)c2C)c2ccc(O)cc2)cc(C#N)n1C ): 9.66

pKi reported for this molecule Cc1c(C(=O)N(c2ccc(O)cc2)c2cc(C#N)n(C(F)F)c2C)cc(-c2cc3c(cc2C(=O)N2Cc4ccccc4C[C@H]2CN2CCCCC2)CN(C(=O)Cc2ccc(OCCN4CCN(C)CC4)cc2F)CC3)n1C : 10.52

Kindly note the recorded pKi for Cc1c(C(=O)N(c2ccccc2)c2cnc3c(cnn3C)c2)cc(-c2cc3c(cc2C(=O)N2Cc4ccccc4C[C@H]2C)CN(C(=O)Cc2ccc(OCCN4CCOCC4)cc2)CC3)n1C , which is 10.85

Per the record, Cc1c(N(C(=O)c2cc(-c3cc4c(cc3C(=O)N3Cc5ccccc5C[C@H]3CN3CCCC3)CN(C(=O)Cc3ccc(OCCN5CCOCC5)cc3F)CC4)n(C)c2C)c2ccc(O)cc2)cc(C#N)n1C has pKi of 10.70

pKi reading for COc1ncc(N(C(=O)c2cc(-c3cc4c(cc3C(=O)N3Cc5ccccc5C[C@H]3C)CN(C(=O)Cc3ccc(OCCN5CCOCC5)cc3)CC4)n(C)c2C)c2ccccc2)cc1F : 9.89

Cc1c(C(=O)N(c2ccccc2)c2cc(C#N)n(C(F)F)c2C)cc(-c2cc3c(cc2C(=O)N2Cc4ccccc4C[C@H]2C)CN(C(=O)Cc2ccc(OCCN4CCOCC4)cc2)CC3)n1C yielded pKi of 10.30

Query Cc1c(C(=O)N(c2ccc(O)cc2)c2cc(C#N)n(C(F)F)c2C)cc(-c2cc3c(cc2C(=O)N2Cc4ccccc4C[C@H]2CN2CCCC2)CN(C(=O)Cc2ccc(OCCN4CCOCC4)cc2F)CC3)n1C yields pKi of 10.40

molecule Cc1c(N(C(=O)c2cc(-c3cc4c(cc3C(=O)N3Cc5ccccc5C[C@H]3C)CN(C(=O)C3CCN(c5ccccc5)C3=O)CC4)n(C)c2C)c2ccc(O)cc2)cc(C#N)n1C (stereo partly shown) , pKi observed: 9.17

Cc1c(N(C(=O)c2cc(-c3cc4c(cc3C(=O)N3Cc5ccccc5C[C@H]3CN3CCCCC3)CN(C(=O)Cc3cc(F)c(OCCN5CCOCC5)cc3F)CC4)n(C)c2C)c2ccc(O)cc2)cc(C#N)n1C has a reported pKi of 10.05

The measured pKi associated with COc1ccc(N(C(=O)c2cc(-c3cc4c(cc3C(=O)N3Cc5ccccc5C[C@H]3CN3CC5(CCC5)C3)CN(C(=O)Cc3ccc(OCCN5CCOCC5)cc3F)CC4)n(C)c2C)c2ccc(O)cc2)cc1C#N reads 10.40

The reported value for Cc1c(N(C(=O)c2cc(-c3cc4c(cc3C(=O)N3Cc5ccccc5C[C@H]3C)CN(C(=O)COc3ccccc3)CC4)n(C)c2C)c2ccc(O)cc2)cc(C#N)n1C in terms of pKi is 9.77

// recorded pKi for Cc1c(N(C(=O)c2cc(-c3cc4c(cc3C(=O)N3Cc5ccccc5C[C@H]3C)CN(C(=O)Cc3ccc(OCCN5CCOCC5)cc3)CC4)n(C)c2C)c2ccc(F)cc2)cc(C#N)n1C : 10.22

Record Cc1c(C(=O)N(c2ccc(O)cc2)c2cc(C#N)n(C(F)F)c2C)cc(-c2cc3c(cc2C(=O)N2Cc4ccccc4C[C@H]2CN2CCCCC2)CN(C(=O)Cc2ccc(OCCN4CCOC(C)C4)cc2F)CC3)n1C (single isomer, unassigned) , field pKi: 9.89

Sure, the documented pKi for Cc1ccc(N(C(=O)c2cc(-c3cc4c(cc3C(=O)N3Cc5ccccc5C[C@H]3C)CN(C(=O)Cc3ccc(OCCN5CCOCC5)cc3F)CC4)n(C)c2C)c2ccccc2)cc1C#N is 10.70

molecule Cc1c(N(C(=O)c2cc(-c3cc4c(cc3C(=O)N3Cc5ccccc5C[C@H]3C)CN(C(=O)Cc3ccc([C@H]5C[C@@H]5N5CCOCC5)cc3F)CC4)n(C)c2C)c2ccc(O)cc2)cc(C#N)n1C (single isomer, unassigned) , pKi observed: 9.96
